# Test system: H2030
# assay_procedure: Non Small Cell Lung Cancer proliferation assay (Alamar Blue reduction), H2030
# Type: cell-based, human
# study_conditions: Homo sapiens, NCI-H2030; primary screening; 10 μM compound in 1% DMSO (v/v); read-out: percentage inhibition H2030
I would appreciate it if you labelled entries TRUE when inhibition at 10 µM is -10% or higher, otherwise FALSE.

stdin: hey, is inhibition at 10 µM for this one >= -10%? `O=c1ccc(Cl)nn1-c1ccc(Br)cc1`
stdout: FALSE

stdin: hey, is inhibition at 10 µM for this one >= -10%? `O=c1c(N2CCCC2)c(Cl)cnn1-c1ccccc1`
stdout: TRUE

stdin: hey, is inhibition at 10 µM for this one >= -10%? `CSc1c(SCc2ccccc2)cnn(-c2ccccc2)c1=O`
stdout: FALSE

stdin: hey, is inhibition at 10 µM for this one >= -10%? `COc1ccc(-n2nc(C(=O)c3ccco3)cc(-c3nc4ccccc4[nH]3)c2=N)cc1`
stdout: TRUE

Next:
stdin: hey, is inhibition at 10 µM for this one >= -10%? `Cc1cccc(-n2ncc(SCc3ccccc3)c(SCc3ccccc3)c2=O)c1`
stdout: TRUE

stdin: hey, is inhibition at 10 µM for this one >= -10%? `O=c1c(SCc2ccccc2Cl)c(SCc2ccccc2Cl)cnn1-c1ccccc1`
stdout: FALSE

* * *

# assay_procedure: in vitro
# study_conditions: human, CytoTox (uM) NHBE
Known IC50 at 72 h of a selection of compounds

Reference set, count: 6
stdin: Please supply the value of reported IC50 at 72 h for the item `O=c1c(Br)c(SCc2ccccc2)cnn1-c1ccccc1`
stdout: > 10 µM

stdin: Please supply the value of reported IC50 at 72 h for the item `Cc1ccc(-n2ncc(Cl)c(Cl)c2=O)cc1Cl`
stdout: > 10 µM

stdin: Please supply the value of reported IC50 at 72 h for the item `Cc1cc(-n2ncc(Cl)c(Cl)c2=O)ccc1Cl`
stdout: > 10 µM

stdin: Please supply the value of reported IC50 at 72 h for the item `Cc1cccc(-n2nc(OCCCNC(=O)CCC(=O)O)c(Cl)c(Cl)c2=O)c1`
stdout: > 10 µM

stdin: Please supply the value of reported IC50 at 72 h for the item `O=c1c(Cl)c(Cl)cnn1-c1c(Cl)cc(C(F)(F)F)cc1Cl`
stdout: > 10 µM

stdin: Please supply the value of reported IC50 at 72 h for the item `O=C(O)CCC(=O)NCCCOc1cccc(-n2ncc(Br)c(Br)c2=O)c1`
stdout: > 10 µM

Next:
stdin: Please supply the value of reported IC50 at 72 h for the item `Cc1cccc(-n2ncc(I)cc2=O)c1`
stdout: > 10 µM

stdin: Please supply the value of reported IC50 at 72 h for the item `Cc1nc2cc(-n3ncc(Cl)c(Cl)c3=O)ccc2s1`
stdout: > 10 µM

stdin: Please supply the value of reported IC50 at 72 h for the item `CCN(CC)c1cnn(-c2cccc(C)c2)c(=O)c1Cl`
stdout: > 10 µM

stdin: Please supply the value of reported IC50 at 72 h for the item `COc1cccc(-n2ncc(Br)c(Br)c2=O)c1`
stdout: 1.85 µM

stdin: Please supply the value of reported IC50 at 72 h for the item `CCN(CC)c1c(Cl)cnn(-c2cccc(C)c2)c1=O`
stdout: > 10 µM

stdin: Please supply the value of reported IC50 at 72 h for the item `COc1cccc(-n2ncc(Cl)c(Cl)c2=O)c1`
stdout: 1.7 µM

stdin: Please supply the value of reported IC50 at 72 h for the item `O=c1c(Cl)c(Cl)cnn1-c1ccccn1`
stdout: 1.43 µM
